Target: human MCH1 receptor (Homo sapiens)
Sequence (Q99705 whole entry): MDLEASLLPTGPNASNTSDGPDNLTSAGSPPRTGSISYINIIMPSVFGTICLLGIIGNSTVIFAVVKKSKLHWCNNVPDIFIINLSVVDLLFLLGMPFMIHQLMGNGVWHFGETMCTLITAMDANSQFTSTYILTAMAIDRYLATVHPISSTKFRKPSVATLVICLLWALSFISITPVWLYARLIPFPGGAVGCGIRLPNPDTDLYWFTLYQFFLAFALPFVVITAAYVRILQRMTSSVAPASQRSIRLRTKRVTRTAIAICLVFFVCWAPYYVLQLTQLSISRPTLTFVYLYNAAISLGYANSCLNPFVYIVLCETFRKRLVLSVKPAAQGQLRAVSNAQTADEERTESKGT
Experiment: Intracellular calcium response to MCH in COS-7 cells transfected with MCH1 (fluo-3, FLIPR): antagonist potency
Format: cell-based
Parameters: expressed in transfected cells; host or cells: COS-7
Conditions: read-out: Kb (nM) hMCH1
Excerpt: MCH1 antagonist compounds were identified by their ability to inhibit the MCH-elicited response. […]. From the IC50 values, the antagonist potency (Kb)was derived using the Cheng-Prussof correction (Lazareno and Birdsall, 1993). […]
Structures can show the parent of a compound that is named as a salt.
QUANTITY: Kb (nM)
Numbers only, in nM.

MOLECULE	TEST VALUE
CCn1c(=O)n(C2CCN(CCCNC(=O)N3C(=O)NC(C)=C(C(=O)OC)C3c3ccc(F)c(F)c3)CC2)c2ccccc21 (single isomer, unassigned; (+)) [Example 7, HYDROCHLORIDE]	41

Batch: Kb for all items listed.
1. CC(=O)C1=C(C)NC(=O)N(C(=O)NCCCN2CCC(c3ccc(F)cc3)CC2)C1c1cc(F)c(F)c(F)c1 (single isomer, unassigned; (+)) [Example 12, HYDROCHLORIDE]
2. COCC1=C(C(=O)OC)C(c2ccc(F)c(F)c2)N(C(=O)NCCCN2CCC(c3cccc(OC)c3)CC2)C(=O)N1 (single isomer, unassigned; (+)) [Example 9]
3. COCC1=C(C(=O)OC)C(c2ccc(F)c(F)c2)N(C(=O)NCCCN2CCC(c3cccc(NC(C)=O)c3)CC2)C(=O)N1 (single isomer, unassigned; (-)) [Example 1]
4. COCC1=C(C(=O)OC)C(c2ccc(F)c(F)c2)N(C(=O)NCCCN2CCC(c3cc(F)ccc3OC)CC2)C(=O)N1 (single isomer, unassigned; (+)) [Example 15]

[A]
[29, 35, 42, 289]

Please state Kb for every molecule in the list that follows.
1. COCC1=C(C(=O)OC)C(c2ccc(F)c(F)c2)N(C(=O)NCCCN2CCC(C)(c3ccccc3)CC2)C(=O)N1 (single isomer, unassigned; (+)) [Example 36]
2. COCC1=C(C(=O)OC)C(c2ccc(F)c(F)c2)N(C(=O)NCCCN2CCC(O)(c3ncccc3C)CC2)C(=O)N1 (single isomer, unassigned; (+)) [Example 16]

[A]
1: 406; 2: 329

I have 2 molecules here; please give me Kb for each one.
1. CCC1=C(C(=O)O)C(c2ccc(F)c(F)c2)N(C(=O)NCCCN2CCC3(CC2)OCc2ccccc23)C(=O)N1 (single isomer, unassigned; (+)) [Example 4, HYDROCHLORIDE]
2. COC(=O)C1=C(C)NC(=O)N(C(=O)NCCCN2CCC3(CC2)C(=O)CCc2ccccc23)C1c1ccc2nonc2c1 (stereo not drawn) [Example 23, HYDROCHLORIDE]

[A]
[187, 68]

* * *

Field: Ki. Provide a value for each of the compounds that follow.
Biological target: human dopamine D5 receptor (Homo sapiens, UniProt P21918)
Sequence (P21918 whole entry): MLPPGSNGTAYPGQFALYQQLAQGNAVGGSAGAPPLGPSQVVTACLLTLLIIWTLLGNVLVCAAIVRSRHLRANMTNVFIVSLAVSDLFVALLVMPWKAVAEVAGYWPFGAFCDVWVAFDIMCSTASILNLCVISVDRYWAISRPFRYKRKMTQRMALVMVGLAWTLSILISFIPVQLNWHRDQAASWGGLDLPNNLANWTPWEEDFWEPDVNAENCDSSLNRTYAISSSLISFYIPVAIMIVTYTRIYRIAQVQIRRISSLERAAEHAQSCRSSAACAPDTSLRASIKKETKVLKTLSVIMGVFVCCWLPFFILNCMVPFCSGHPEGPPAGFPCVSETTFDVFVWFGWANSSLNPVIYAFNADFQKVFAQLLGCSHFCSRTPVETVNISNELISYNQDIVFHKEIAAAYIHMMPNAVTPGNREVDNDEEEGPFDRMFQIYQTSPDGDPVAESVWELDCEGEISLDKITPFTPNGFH
Structures can show the parent of a compound that is named as a salt.
Numbers only, in nM.

COMPOUND	Ki [nM]
COCC1=C(C(=O)OC)[C@H](c2ccc(F)c(F)c2)N(C(=O)NCCCN2CCC(c3cccc(NC(C)=O)c3)CC2)C(=O)N1	773

Now for another entry.
[Q] Which Ki value belongs to COC(=O)C1=C(C)NC(=O)N(C(=O)NCCCN2CCC3(CC2)OCc2ccccc23)C1c1ccc2nonc2c1 (single isomer, unassigned) [Example 18, HYDROCHLORIDE] ?
[A] 2540
